Provenance of the data: PubChem BioAssay (NCI)

System: COLO 205 colon
Test: NCI tumour cell line growth inhibition, 48 h
I'd be grateful if you could share measured GI50 for these entries.

• COc1ccc2c(c1)C=CC1C2CC[C@]2(C)C(NC(=O)/C=C/c3ccc(O)c(O)c3)CCC12 (stereo not given in full) = 2.61 µM
• C[C@@H]1Cc2c(ccc3[nH]ncc23)[C@@H](c2ccc(NC3CN(CCCF)C3)cn2)N1CC(F)(F)F = 16.5 µM
• N#Cc1cc2c(cc1Cl)SC(=Nc1ccccc1)N(S(=O)(=O)c1ccc(Br)s1)S2(=O)=O = 49.1 µM

Field: GI50. Fill in for each record below.
1. CNC(=O)c1cc(-c2ccc(F)cc2)cc(-c2ccc(S(=O)(=O)N3CCCC3)cc2)c1N
2. O=C(/C=C/c1ccc(Cl)cc1Cl)c1ccc(Cl)cc1Cl

["23.5 µM", "20.8 µM"]
